test system: TK-10 renal; assay: NCI tumour cell line growth inhibition, 48 h; in the data active means GI50 below about 0.43 µM; inactive means the rest
Please reply with one of these outcomes: active, inactive

Recorded results for 5 molecules are shown here.
CC(C)Oc1cc(OCC(=O)O)cc(C(=O)N(CCC(N)=O)C(=O)Nc2ccc(C(=O)O)cc2OC(C)C)c1	inactive
CCN(CC)CCCCCCCCNc1c2ccc(Cl)cc2nc2ccc(OC)cc12	inactive
O=C(Nc1ccc(Cl)c(Cl)c1)Nc1ccc(Cl)c([N+](=O)[O-])c1	inactive
COc1ccc(C(=O)CC2(O)C(=O)Nc3c(Cl)ccc(Cl)c32)cc1 (stereo not given)	inactive
O=c1ccc2nc(-c3ccccc3)nn(-c3ccccc3)c-2c1	inactive

Pending molecule:
Query string: # fetch the recorded call for CC(=O)O[C@@H]1C=CC(=O)C2(CC(=O)O[C@@H]2/C=C(\C)CCC=C(C)C)C1 (stereo not given in full) here
Result string: inactive
